Reported TGI values for the following molecules.
# System: RPMI-8226 leukemia
# procedureDetails: NCI tumour cell line growth inhibition, 48 h

[
  {
    "molecule": "CCCCN(CCCC)Cc1cc(Nc2ccnc3cc(Cl)ccc23)ccc1O",
    "observedValue": "> 100 µM"
  },
  {
    "molecule": "C=CCc1c(Cl)nc(Cl)nc1Cl",
    "observedValue": "> 100 µM"
  },
  {
    "molecule": "COC(=O)C1(NC(=O)C(CC(=O)OCc2ccccc2)NC(=O)OCc2ccccc2)CCCCCC1 (centres undefined)",
    "observedValue": "21.9 µM"
  }
]

Now look at this one.
**Query** I would be grateful if you could share the reported TGI for O=S1(=O)c2ccccc2Oc2ccc(C(/C=N/O)=N/O)cc21 .
**Result** 53.5 µM
